- protocolNotes: Plasma clearance was measured in dog
- Type: ADME, organism-based, Canis lupus familiaris
- conditions: read-out: Clp
quantityName: clearance (mL/min/kg)

These solved cases illustrate the format of a correct answer.
- molecule: "O=S(=O)(Nc1ccc(CCNC[C@H](O)c2cccnc2)cc1)c1ccc(-c2nc(-c3cc(F)c(F)c(F)c3)cs2)cc1"
  clearance (mL/min/kg): 20.5
- molecule: "O=S(=O)(Nc1ccc(CCNC[C@H](O)c2cccnc2)cc1)c1ccc(-c2nc(-c3ccc(F)c(F)c3)cs2)cc1"
  clearance (mL/min/kg): 29.3

I = O=S(=O)(Nc1ccc(CCNC[C@H](O)c2cccnc2)cc1)c1ccc(-c2nc(-c3ccc(C(F)(F)F)cc3)cs2)cc1
II = O=S(=O)(Nc1ccc(CCNC[C@H](O)c2cccnc2)cc1)c1ccc(-c2nc(-c3ccc(OC(F)(F)F)cc3)cs2)cc1
stdin: Determine, for I and II , which has the greater value of clearance. // caller expects the label of the chosen entry
stdout: I
(I: 26.8 mL/min/kg, II: 14.3 mL/min/kg)
